- target_or_test_system: Ba/F3 EGFR-Del19/T790M/C797S (Homo sapiens, UniProt P00533, T790M/C797S, cells depend on it, form not given)
- Sequence (P00533 with tags, fused parts or gaps DEL746-750/T790M/C797S, form open): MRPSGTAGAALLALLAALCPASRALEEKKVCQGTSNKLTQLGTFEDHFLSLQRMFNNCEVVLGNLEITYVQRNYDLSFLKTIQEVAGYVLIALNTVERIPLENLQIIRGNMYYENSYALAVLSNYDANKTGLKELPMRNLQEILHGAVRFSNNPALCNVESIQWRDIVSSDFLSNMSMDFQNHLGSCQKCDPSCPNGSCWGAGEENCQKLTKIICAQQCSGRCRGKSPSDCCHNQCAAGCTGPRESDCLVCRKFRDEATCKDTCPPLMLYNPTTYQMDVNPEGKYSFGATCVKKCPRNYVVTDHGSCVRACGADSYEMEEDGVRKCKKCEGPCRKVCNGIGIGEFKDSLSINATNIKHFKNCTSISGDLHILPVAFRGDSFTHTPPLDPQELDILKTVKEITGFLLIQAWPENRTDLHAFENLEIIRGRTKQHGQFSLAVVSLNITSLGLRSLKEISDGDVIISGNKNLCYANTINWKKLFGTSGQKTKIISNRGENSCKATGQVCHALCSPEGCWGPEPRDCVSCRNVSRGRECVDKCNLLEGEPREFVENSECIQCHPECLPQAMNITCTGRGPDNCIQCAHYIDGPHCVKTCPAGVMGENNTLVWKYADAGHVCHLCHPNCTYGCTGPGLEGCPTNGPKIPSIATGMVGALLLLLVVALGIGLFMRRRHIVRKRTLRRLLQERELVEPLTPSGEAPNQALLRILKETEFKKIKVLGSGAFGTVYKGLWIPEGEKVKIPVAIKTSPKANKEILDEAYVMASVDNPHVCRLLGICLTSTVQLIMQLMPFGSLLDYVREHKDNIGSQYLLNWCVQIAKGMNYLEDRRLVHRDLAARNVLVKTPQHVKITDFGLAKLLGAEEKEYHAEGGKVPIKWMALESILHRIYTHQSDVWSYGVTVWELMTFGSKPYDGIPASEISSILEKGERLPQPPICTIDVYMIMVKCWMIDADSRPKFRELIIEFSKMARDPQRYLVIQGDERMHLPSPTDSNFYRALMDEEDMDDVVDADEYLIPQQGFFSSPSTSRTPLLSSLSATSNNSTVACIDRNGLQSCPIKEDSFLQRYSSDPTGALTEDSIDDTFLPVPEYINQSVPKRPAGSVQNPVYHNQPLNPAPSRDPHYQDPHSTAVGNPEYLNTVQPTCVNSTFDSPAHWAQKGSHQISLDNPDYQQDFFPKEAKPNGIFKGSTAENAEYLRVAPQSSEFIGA
- test_details: Ba/F3 viability assay (CellTiter-Glo), DTC
- Assay type: cell-based
- reported_conditions: anti-proliferation, read-out: BaF3 DTC IC50
# GI50 per record follows
value_kind: GI50

molecule=C[C@H]1CCOc2c(cnn2C)-c2nccc(n2)Nc2cc3c(cn2)c(-c2ccc(CN(C)CCF)n2C)nn31 value_kind=GI50 recorded_measurement="< 10 nM"
molecule="CC1CCCOc2c(cnn2C)-c2nccc(n2)Nc2cc3c(cn2)c(N2CCCC2)nn31 (stereo not shown)" value_kind=GI50 recorded_measurement="10 to 100 nM"
molecule=C[C@H]1CCOc2c(cnn2C)-c2nccc(n2)Nc2cc3c(cn2)c(N2CC[C@@H](N(C)C)C2)nn31 value_kind=GI50 recorded_measurement="10 to 100 nM"
molecule=Cc1nc(-c2nn3c4cc(ncc24)Nc2ccnc(n2)-c2cnn(C)c2OCC[C@@H]3C)sc1CN(C)C value_kind=GI50 recorded_measurement="10 to 100 nM"
molecule=CCN(CC)CCOc1cc(F)cc(-c2nn3c4cc(ncc24)Nc2ccnc(n2)-c2cnn(C)c2OCC[C@@H]3C)c1 value_kind=GI50 recorded_measurement="10 to 100 nM"
molecule=CCn1cc(-c2nn3c4cc(ncc24)Nc2ccnc(n2)-c2cnn(C)c2OCC[C@@H]3C)cc1CN(C)C value_kind=GI50 recorded_measurement="< 10 nM"
molecule="CN1CCN(C(=O)C2CCN(c3nn4c5cc(ncc35)Nc3ccnc(n3)-c3cnn(C)c3OCCC4)C2)CC1 (stereo not shown)" value_kind=GI50 recorded_measurement="100 to 1000 nM"
molecule="CC1COc2c(cnn2C)-c2nccc(n2)Nc2cc3c(cn2)c(N2CCC2)nn3C1 (stereo not shown)" value_kind=GI50 recorded_measurement="10 to 100 nM"
molecule=CC(C)N1CCN(Cc2ccc(-c3nn4c5cc(ncc35)Nc3ccnc(n3)-c3cnn(C)c3OCC[C@@H]4C)n2C)CC1 value_kind=GI50 recorded_measurement="< 10 nM"
molecule=C[C@H]1CCOc2c(cnn2C)-c2nccc(n2)Nc2cc3c(cn2)c(-c2cccc(CN4CCOCC4)c2)nn31 value_kind=GI50 recorded_measurement="< 10 nM"
molecule=C[C@H]1CCOc2c(cnn2C)-c2nccc(n2)Nc2cc3c(cn2)c(-c2csc(CN4CCN(C)CC4)n2)nn31 value_kind=GI50 recorded_measurement="< 10 nM"
molecule=C[C@H]1CCOc2c(cnn2C)-c2nccc(n2)Nc2cc3c(cn2)c(-c2ccc(CN4CCN(C)CC4)n2C)nn31 value_kind=GI50 recorded_measurement="< 10 nM"
molecule="CC1CCOc2c(cnn2C)-c2nccc(n2)Nc2cc3c(cn2)c(-c2ccc(CN4CCN(C)CC4)o2)nn31 (stereo not shown)" value_kind=GI50 recorded_measurement="10 to 100 nM"
molecule=C[C@H]1CCCOc2c(cnn2C)-c2nccc(n2)Nc2cc3c(cn2)c(N2CCC2)nn31 value_kind=GI50 recorded_measurement="10 to 100 nM"
molecule=C[C@H]1CCOc2c(cnn2C)-c2nccc(n2)Nc2cc3c(cn2)c(N2CC[C@H](N(C)C)C2)nn31 value_kind=GI50 recorded_measurement="< 10 nM"
molecule=C[C@H]1CCOc2c(cnn2C)-c2nccc(n2)Nc2cc3c(cn2)c(-c2cccc(CCN4CCOCC4)c2)nn31 value_kind=GI50 recorded_measurement="< 10 nM"
